- target-under-test: glucose-6-phosphate dehydrogenase-6-phosphogluconolactonase (Plasmodium falciparum 3D7)
- assay-text: PfG6PD enzyme inhibitors, kinetic NADPH readout, dose response, orthogonal assay, biochemical, kinetic NADPH detection (AID 540269)
- condition-set: purified PfG6PD-6PGL
Activity calls are given as the source filed them. No rule for the calls is given here.
value-kind: IC50

Solved cases (5 shown):
The recorded IC50 for entry `Oc1cc(-n2cccn2)c(O)cc1-n1cccn1` equals 68.8 µM

The recorded IC50 for entry CC1CCc2c(nc3sc4c(c3c2N)CCCC4)C1 (stereo not given) equals > 80 µM (inactive)

The recorded IC50 for entry `Cc1ccccc1OCC(=O)N/N=C/c1ccc(Sc2nc3ccccc3s2)o1` equals > 80 µM (inactive)

The recorded IC50 for entry `Cc1cc(NC(=O)c2oc3ccccc3c2C)ccc1-n1cnnn1` equals 14.9 µM

The recorded IC50 for entry `O=C1Nc2cc(C(=O)NCCCN3CCCC3)ccc2S/C1=C\c1ccccc1` equals 22.3 µM

More entries:
The recorded IC50 for entry `ClC(Cl)(c1nnnn1-c1ccccc1)c1nnnn1-c1ccccc1` equals 61.2 µM

The recorded IC50 for entry `Cc1nc2ccc(Nc3nc4cc(S(=O)(=O)N5CCOCC5)ccc4o3)cc2s1` equals > 80 µM (inactive)

The recorded IC50 for entry `CC(C)c1nnc(NC(=O)c2cccc(-n3cnnn3)c2)s1` equals 27.4 µM

The recorded IC50 for entry `CCCNC(=O)Cn1sc2nc(C)cc(C)c2c1=O` equals 51.1 µM

The recorded IC50 for entry `CN(C)c1nc(=NCc2cccs2)ss1` equals > 80 µM (inactive)
